Data provenance: PubChem BioAssay (NCATS)

- experimental_protocol: qHTS of pediatric cancer cell lines to identify multiple opportunities for drug repurposing: Confirmatory screen for DAOY cells (AID 1347114); also: nearly all actives have a fitted effect of over 65% in size
- assay_context: DAOY medulloblastoma cells viability, cytotoxicity qHTS; series mostly up to 45.9 µM
Inconclusive results are not listed. Active and inactive are the calls of the source. Calls follow the shape of the dose curve; as a rule, active = well fitted cell-killing curve with a large enough effect; inconclusive = small, poorly fitted or top-dose-only effect; inactive = no such curve, though single readings can be large or run the other way.
Possible outcomes: active, inactive

- C[C@]12CCC(=O)C=C1CC[C@@H]1[C@@H]2[C@@H](O)C[C@@]2(C)[C@H]1CC[C@]2(O)C(=O)COC(=O)CCC(=O)O: inactive
- CCC(=O)O[C@]1(C(=O)COC)[C@@H](C)C[C@H]2[C@@H]3CCC4=CC(=O)C=C[C@]4(C)C3(F)[C@@H](O)C[C@@]21C (some centres not stated): inactive
- CC(=O)OCC(=O)[C@@]1(O)CCC2C3CCC4=CC(=O)CC[C@]4(C)C3[C@@H](O)C[C@@]21C (some centres not stated): inactive
- N=C(N)c1ccc(OCCCOc2ccc(C(=N)N)cc2)cc1: active
- C[C@H]1C[C@@H]2[C@H]([C@@H](O)C[C@@]3(C)[C@H]2CC[C@]3(O)C(=O)CO)[C@@]2(C)C=CC(=O)C=C12: inactive
- CCCCC(CC)CNC(=O)CC(C)OC(=O)CCC(=O)O (configuration not stated): inactive
- CCC1=C[C@@H]2CN(C1)Cc1c([nH]c3ccccc13)[C@@](C(=O)OC)(c1cc3c(cc1OC)N(C)[C@H]1[C@@](O)(C(=O)OC)[C@H](OC(C)=O)[C@]4(CC)C=CCN5CC[C@]31[C@@H]54)C2: active

----------
- Test system: HEK293
- experimental_protocol: Cytotoxic Profiling of Annotated Libraries Using Quantitative High-Throughput Screening (AID 1296008); also: nearly all actives have a fitted effect of over 60% in size; also: potency is read from the fitted curve at half-maximal effect
- assay_context: Five cell lines viability, CellTiter-Glo ATP luminescence, 48-72 h
Inconclusive results are not listed. Activity calls are given as the source filed them. Calls come from the whole dose curve; as a rule, active = well fitted inhibition curve with a large enough effect; inconclusive = small, poorly fitted or top-dose-only effect; inactive = flat fitted curve, though single readings scatter.
attribute_measured: Potency

- CCOC(=O)C(O)c1ccccc1 (stereo not drawn): inactive
- CC(=O)Nc1ccn(C2COC(COC(=O)c3ccccc3)O2)c(=O)n1 (stereo not drawn): 18800 nM (active)
- CN(C)CCCOC1(Cc2ccccc2)CCCCCC1: inactive
- CCOc1c(N2CCOCC2)cnn(C)c1=O: inactive
- CC(C)NC(=O)c1ccc(C=O)cc1: inactive
- CCCCCCCCCCCCCC[N+](C)(C)C: 2660 nM (active)
- CC[C@@]1(O)C(=O)OCc2c1cc1n(c2=O)Cc2c-1nc1ccccc1c2/C=N/OC(C)(C)C: 21.1 nM (active)
- Nc1ccc2cc3ccc(N)cc3nc2c1: 2370 nM (active)

----------
- target_system: Cytochrome P450 2C9 (Homo sapiens)
- experimental_protocol: Cytochrome P450 family 2 subfamily C member 9 (CYP2C9) small molecule antagonists: luciferase biochemical (cell-free) qHTS assay (AID 1645842); also: nearly all actives have a fitted effect of over 55% in size; also: potency is read from the fitted curve at half-maximal effect
- assay_context: P450-Glo CYP2C9 enzyme assay, luciferin luminescence; series mostly up to 57.4 µM
Inconclusive results are not listed. The source made the active and inactive calls. Calls follow the shape of the dose curve; as a rule, active = well fitted inhibition curve with a large enough effect in the repeat runs; inconclusive = weak or mixed curves; inactive = no such curve, though single readings can be large or run the other way.
attribute_measured: Potency

* CNC(=O)c1cnn(-c2nc(N)c3ncn([C@@H]4O[C@H](CO)[C@@H](O)[C@H]4O)c3n2)c1 | inactive
* CSc1ccc(/C=C2/C(C)=C(CC(=O)O)c3cc(F)ccc32)cc1 | inactive
* Nc1ccc([N+](=O)[O-])c(C(F)(F)F)c1 | inactive
* Oc1ccc(CCNCCCCCCNCCc2ccccc2)cc1O | inactive
* Nc1cc(C(F)(F)F)ccc1S | 1.38 µM (active)
* Cc1cccc(N(C)C(=S)Oc2ccc3c(c2)C2CCC3C2)c1 (stereo unspecified) | 7.76 µM (active)
* CCOC(=O)C(=O)c1csc(NC=O)n1 | inactive
* O=C(CCCl)NCCc1ccccc1 | inactive
* Cc1ncc(CO)c(CO)c1O | inactive
* C[C@H](N)C(=O)N[C@@H](C)C(=O)NC1[C@H]2CN(c3nc4c(cc3F)c(=O)c(C(=O)O)cn4-c3ccc(F)cc3F)C[C@@H]12 (stereo partly specified) | inactive
* COc1ccc(OC(=O)N(CC(=O)O)Cc2ccc(OCCc3nc(-c4ccccc4)oc3C)cc2)cc1 | 17.4 µM (active)
* COC(=O)c1cc(Cl)c(NC(C)=O)cc1OC | inactive
* COCCc1ccc(OCC2CO2)cc1 (stereo unspecified) | inactive
* C1N2CN3CN1CN(C2)C3 | inactive
* O=C(O)c1ccc(OCCN2CCCCC2)cc1 | inactive
* CN(C)CCOC1=Cc2ccccc2Sc2ccc(Cl)cc21 | inactive
* Cc1cccc(C)c1NC(=O)c1cc(S(N)(=O)=O)c(Cl)cc1O | inactive
* OCc1cccnc1 | inactive
* COCCc1ccccn1 | inactive
* CCOC(=O)N1CCC(Nc2ccc(Cl)cc2N)CC1 | 8.71 µM (active)
* CC(=O)Oc1ccc(C2(c3ccc(OC(C)=O)cc3)Oc3ccccc3NC2=O)cc1 | 1.74 µM (active)
* CCCCCOc1ccccc1/C(=C\SC)n1ccnc1 | 3.89 µM (active)
* N#CSCC(=O)O | inactive
* O=C(Nc1ccc(Cl)cc1)Nc1ccc(Cl)c(C(F)(F)F)c1 | 11 µM (active)
* Nc1ccc(C(=O)OCC(O)CO)cc1 (stereo unspecified) | inactive
* Nc1ccc(O)cc1 | 15.5 µM (active)
